Documented Proxy for plastic degradation across a set of proteins
# Substrate: PET
# Test summary: Proxy for plastic degradation [HPLC-UV]
# Test parameters: pH 9; 30 °C; 24 h
Measured endpoint: Proxy for plastic degradation (µM)

1. unnamed (protein) MNFPRASRLMQAAVLGGLMAVSAAATAQTNPYARGPNPTAASLEASAGPFTVRSFTVSRPSGYGAGTVYYPTNAGGTVGAIAIVPGYTARQSSIKWWGPRLASHGFVVITIDTNSTLDQPDSRSSQQMAALRQVASLNGTSSSPIYGKVDTARMGVMGWSMGGGGSLISAANNPSLKAAAPQAPWHSSTNFSSVTVPTLIFACENDSIAPVNSSALPIYDSMSRNAKQFLEINGGSHSCANSGNSNQALIGKKGVAWMKRFMDNDTRYSTFACENPNSTRVSDFRTANCS    15.2
2. unnamed (protein) MNFPRASRLMQAAVLGGLMAVSAAATAQTNPYARGPNPTAASLEASAGPFTVRSFTVSRPSGYGAGTVYYPTNAGGTVGAIAIVPGYTARQSSIKWWGPRLASHGFVVITIDTNSTLDQPSSRSSQQMAALRQVASLNGTSSSPIYGKVDTARMGVMGWSMGGGGSLISAANNPSLKAAAPQAPWLSSTNFSSVTVPTLIFACENDSIAPVNSSALPIYDSMSRNAKQFLEINGGSHSCANSGNSNQALIGKKGVAWMKRFMDNDTRYSTFACENPNSTRVSDFRTANCS    2.1
3. unnamed (protein) MNFPRASRLMQAAVLGGLMAVSAAATAQTNPYARGPNPTAASLEASAGPFTVRSFTVSRPSGYGAGTVYYPTNAGGTVGAIAIVPGYTARQSSIKWWGPRLASHGFVVITIDTNSTLDQPSSRSSQQMAALRQVASLNGTSSSPIYGKVDTARMGVMGWSMGGGGSLISAANNPSLKAAAPQAPWISSTNFSSVTVPTLIFACENDSIAPVNSSALPIYDSMSRNAKQFLEINGGSHSCANSGNSNQALIGKKGVAWMKRFMDNDTRYSTFACENPNSTRVSDFRTANCS    1.3
